A compilation of IC50 values for Rho-associated protein kinase 1 (Homo sapiens, UniProt Q13464) from the published literature.
Answers are plain numbers, in nM.

The examples below pair each entry with its known result.
COc1cc(C(=O)NCc2csc(-c3ccccc3)n2)ccc1-c1cn[nH]c1    155
O=C(NC1CCC1)c1cc2ccc(-c3nc(Nc4ccc(-c5cn[nH]c5)cc4)c4sccc4n3)cc2[nH]1    4980

I need IC50 for every entry listed below, if you could help.
1. O=C(NC1CCOC1)c1cc2ccc(-c3nccc(Nc4ccc5[nH]ncc5c4)n3)cc2s1 (stereo not shown)
2. COc1cccc(C(CN)NC(=O)c2cccc(-c3cc(OC)c4[nH]ncc4c3)c2)c1 (stereo not shown)
3. O=C(Nc1ccnnc1)c1cc2ccc(-c3nc(Nc4ccc5[nH]ncc5c4)c4sccc4n3)cc2[nH]1
4. O=C(Cc1ccccc1Cl)Nc1ccc(-c2cn[nH]c2)cc1OCCN1CCCC1
5. CCOc1cc(C(=O)N[C@H](CO)c2ccccc2)ccc1-c1cn[nH]c1
6. Cn1c(C(=O)Nc2ccnnc2)cc2ccc(-c3nccc(Nc4ccc5[nH]ncc5c4)n3)cc21

Result block:
[554, 758, 5190, 111, 50.8, 6920]

----------
A compilation of pIC50 values for Rho-associated protein kinase 1 (Homo sapiens) from the published literature.
Answers are plain numbers, as −log10 of the molar value.

The examples below pair each entry with its known result.
O=C(NC1CCOCC1)c1cc2ccc(-c3nccc(Nc4ccc(-c5cn[nH]c5)cc4)n3)cc2[nH]1    5.74
O=C(NC(CO)c1cccc(F)c1)c1cccc(-c2ccc3[nH]ncc3c2)c1 (stereo not shown)    7.28

Now for the compound whose pIC50 we want.
Query block: Reported pIC50, compound COC[C@H](NC(=O)c1ccc(-c2cn[nH]c2)c(OC)c1)[C@@H](O)c1ccccc1 : ____
Result block: 6.22

----------
A compilation of pIC50 values for Rho-associated protein kinase 1 (Homo sapiens) from the published literature.
One number for each entry, as −log10 of the molar value.

COc1cccc(CNC(=O)c2cc3ccc(-c4cn[nH]c4)nc3s2)c1    7.19
COc1ccc(NC(=O)c2cccc([C@@H](CO)NC(=O)c3ccc(-c4ccncc4)cc3)c2)cn1    8.77

I need pIC50 for every entry listed below, if you could help.
1. COc1cccc(C(CO)NC(=O)c2cccc(-c3ccc4[nH]nc(N)c4c3)c2)c1 (centres unmarked)
2. COc1cc(C(=O)NCc2cc(F)ccc2Cl)ccc1-c1cn[nH]c1
3. CNC(=O)c1cc(C2NC(=O)NC(C)=C2C(=O)Nc2ccc3[nH]ncc3c2)ccc1F (centres unmarked)
4. O=C(Nc1ccc2[nH]ncc2c1)c1cc2ccc(-c3nccc(Nc4ccc5[nH]ncc5c4)n3)cc2[nH]1
5. COc1cc(C(=O)NCCc2ccc(C(F)(F)F)cc2)ccc1-c1cn[nH]c1
6. Cc1cc(C(=O)NCc2cccc(C(=O)NC3CC3)c2)ccc1-c1cn[nH]c1
7. COc1cc(C(=O)NCc2c(F)cccc2F)ccc1-c1cn[nH]c1

Result block:
[6.39, 8.00, 6.72, 6.15, 6.78, 8.37, 7.75]

I need pIC50 for every entry listed below, if you could help.
1. O=C(Nc1ccnnc1Cl)c1cc2ccc(-c3nccc(Nc4ccc5[nH]ncc5c4)n3)cc2[nH]1
2. CN1CCC(OC(=O)N2Cc3ccc(-c4nccc(Nc5ccc(-c6cn[nH]c6)cc5)n4)cc3C2)C1 (centres unmarked)

Result block:
1. 5.56
2. 5.53
